# System: PtdIns 4-kinase (Bos taurus)
# Construct: It constitutes the major PtdIns 4-kinase activity of bovine uteri; from tissue; host or cells: bovine uterus (acetone powder, purified over ammonium sulfate, Mono Q, S-Sepharose, Mono Q, Mono P and hydroxylapatite)
# Sequence (A6QLN5 1-479): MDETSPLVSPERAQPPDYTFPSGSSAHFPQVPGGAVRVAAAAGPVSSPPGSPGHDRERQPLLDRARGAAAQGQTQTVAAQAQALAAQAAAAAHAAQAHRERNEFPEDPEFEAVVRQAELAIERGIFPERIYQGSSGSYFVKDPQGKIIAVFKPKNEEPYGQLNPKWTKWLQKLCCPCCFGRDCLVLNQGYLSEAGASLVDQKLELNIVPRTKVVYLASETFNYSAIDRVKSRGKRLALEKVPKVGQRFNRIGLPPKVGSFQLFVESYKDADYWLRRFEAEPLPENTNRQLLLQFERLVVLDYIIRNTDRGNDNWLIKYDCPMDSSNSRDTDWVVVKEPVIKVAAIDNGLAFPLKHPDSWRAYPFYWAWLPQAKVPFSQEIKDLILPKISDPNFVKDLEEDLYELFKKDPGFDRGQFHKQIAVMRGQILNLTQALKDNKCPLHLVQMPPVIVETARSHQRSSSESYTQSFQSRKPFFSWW
# Assay name: Specificity of PtdIns 4-kinase for a nucleotide phosphoryl donor ([3H]PtdIns as substrate)
# Type: biochemical, bovine
# Applied conditions: nucleotide donor 150 μM; ATP = 100; read-out: Relative activity with nucleotide donor
Parameter: activity at 150 µM (%)
Please reply with the bare figure in % and do not write the unit itself.

Guide cases for activity at 150 µM, answers given:
{"columns": ["Structure", "System", "Value"],
 "data": [
  ["Nc1ncnc2c1ncn2[C@@H]1O[C@H](COP(=O)(O)OP(=O)(O)O)[C@@H](O)[C@H]1O", "PtdIns 4-kinase (Bos taurus)", 12],
  ["Nc1ncnc2c1ncn2[C@H]1C[C@H](O)[C@@H](COP(=O)(O)OP(=O)(O)OP(=O)(O)O)O1", "PtdIns 4-kinase (Bos taurus)", 104],
  ["Nc1nc2c(ncn2[C@@H]2O[C@H](COP(=O)(O)OP(=O)(O)OP(=O)(O)O)[C@@H](O)[C@H]2O)c(=O)[nH]1", "PtdIns 4-kinase (Bos taurus)", 5],
  ["O=c1ccn([C@@H]2O[C@H](COP(=O)(O)OP(=O)(O)OP(=O)(O)O)[C@@H](O)[C@H]2O)c(=O)[nH]1", "PtdIns 4-kinase (Bos taurus)", 18],
  ["Nc1ncnc2c1ncn2[C@H]1CC[C@@H](COP(=O)(O)OP(=O)(O)OP(=O)(O)O)O1", "PtdIns 4-kinase (Bos taurus)", 39]
]}

activity at 150 µM lookup needed for `O=c1[nH]cnc2c1ncn2[C@@H]1O[C@H](COP(=O)(O)OP(=O)(O)OP(=O)(O)O)[C@@H](O)[C@H]1O` , thanks. 11

Item `Nc1ccn([C@@H]2O[C@H](COP(=O)(O)OP(=O)(O)OP(=O)(O)O)[C@@H](O)[C@H]2O)c(=O)n1` has what recorded activity at 150 µM? 10

====

# System: PtdIns 4-kinase (Bos taurus)
Parameter: IC50

Record `[Ca+2]` : what is its IC50 with PtdIns 4-kinase (Bos taurus)? ~300 µM
